Biological target: MTHFD1 recombinant human enzyme (Homo sapiens, UniProt P11586)
Sequence (P11586 2-291 limits assumed): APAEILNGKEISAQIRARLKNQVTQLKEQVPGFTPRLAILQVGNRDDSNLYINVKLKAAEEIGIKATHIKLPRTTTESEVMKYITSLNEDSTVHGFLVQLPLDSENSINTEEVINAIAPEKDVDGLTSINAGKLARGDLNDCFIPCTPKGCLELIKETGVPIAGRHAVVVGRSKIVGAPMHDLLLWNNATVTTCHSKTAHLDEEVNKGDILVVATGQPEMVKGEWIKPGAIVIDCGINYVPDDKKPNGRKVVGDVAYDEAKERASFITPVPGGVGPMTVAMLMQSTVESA
Assay: MTHFD1 inhibition assay (NAD(P)H-Glo luminescence)
Conditions: MTHFD1 IC50, recombinant human enzyme 200 nM, NADP, band
pIC50: −log10 of the molar value.
Entries and their pIC50
Endpoint label: pIC50

* COC[C@H]1CN(c2cc(C)c3c4c(c(=O)oc3c2C)CN(C(=O)c2ccc(C(=O)NS(=O)(=O)N3CCC(F)CC3)cc2F)CC4)CCN1C [Example 204] | 5.30 to 6.00
* COC[C@H]1CN(c2cc(F)c3c4c(c(=O)oc3c2C)CN(C(=O)c2cc(N(C)C)c(C(=O)NS(=O)(=O)N3C5CCC3CC5)cc2F)CC4)CCN1C [Example 304] | 5.30 to 6.00
* COC[C@H]1CN(c2ccc3c4c(c(=O)oc3c2C)CN(C(=O)c2ccc(C(=O)NS(=O)(=O)N(C)C)c(OC3CCC3)c2F)CC4)CCN1C [Example 50] | 8.00 to 9.00

----------
Target: MTHFD2 recombinant human enzyme (Homo sapiens)
Assay: MTHFD2 inhibition assay (NAD(P)H-Glo luminescence)
Conditions: selectivity of MTHFD2 inhibition over MTHFD1, band
Endpoint label: MTHFD1/MTHFD2 IC50 ratio

• COC[C@@H]1CN(c2cc(C)c3c4c(c(=O)oc3c2C)CN(C(=O)c2ccc(C(=O)NS(=O)(=O)N3CCCC3)c(OC3CCC3)c2F)CC4)CCN1C = G (^ 3 to 9.0)
• COC[C@H]1CN(c2cc(C)c3c4c(c(=O)oc3c2C)CN(C(=O)c2ccc(C(=O)NS(=O)(=O)C3(C)CC3)c(OC3CCC3)c2F)CC4)CCN1C = G (^ 3 to 9.0)
• COC[C@@H]1CN(c2cc(C)c3c4c(c(=O)oc3c2C)CN(C(=O)c2ccc(C(=O)NS(=O)(=O)N3CCCC3)c(OC3CCC3)c2)CC4)CCN1C = G (^ 3 to 9.0)

----------
Molecular target: MTHFD2 recombinant human enzyme (Homo sapiens)
Sequence (P13995 36-350): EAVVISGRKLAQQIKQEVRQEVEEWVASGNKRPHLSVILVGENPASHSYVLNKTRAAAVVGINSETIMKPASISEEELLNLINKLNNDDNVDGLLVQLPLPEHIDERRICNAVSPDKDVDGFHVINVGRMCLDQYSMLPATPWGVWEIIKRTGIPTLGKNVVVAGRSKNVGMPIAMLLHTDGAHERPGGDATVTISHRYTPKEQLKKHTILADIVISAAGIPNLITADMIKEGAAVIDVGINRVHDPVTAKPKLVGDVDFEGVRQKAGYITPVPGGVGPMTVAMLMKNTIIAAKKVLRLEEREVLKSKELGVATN
Assay: MTHFD2 inhibition assay (NAD(P)H-Glo luminescence)
Endpoint label: IC50

- COC[C@H]1CN(c2cc(Cl)c3c4c(c(=O)oc3c2C)CN(C(=O)c2cc(N(C)C)c(C(=O)NS(=O)(=O)N3CCC[C@@H]3C(F)(F)F)cc2F)CC4)CCN1C [Example 278]: 10 to 100 nM
- COC[C@H]1CN(c2ccc3c4c(c(=O)oc3c2C)CN(C(=O)c2cc(N3CC5CC5C3)c(C(=O)NS(=O)(=O)N(C)C)c(C(F)(F)F)c2)CC4)CCN1C (some centres unmarked) [Example 118]: 100 to 1000 nM
- [2H]C([2H])([2H])Oc1cc(C(=O)N2CCc3c(c(=O)oc4c(C)c(N5CCN(C)[C@@H](COC)C5)cc(C)c34)C2)c(F)cc1C(=O)NS(=O)(=O)N1CC2CC2C1 (some centres unmarked) [Example 251]: 1 to 10 nM
- COC[C@H]1CN(c2cc(C)c3c4c(c(=O)oc3c2C)CN(C(=O)c2cc(OC3CCCC3)c(C(=O)NS(=O)(=O)N(C)C)cc2F)CC4)CCN1C [Example 110]: 10 to 100 nM
- COC[C@H]1CN(c2cc(C)c3c4c(c(=O)oc3c2C)CN(C(=O)c2cc(N(C)C)c(C(=O)NS(=O)(=O)N3CCC[C@@H]3COC)cc2F)CC4)CCN1C [Example 311]: 1 to 10 nM
